Parameter: pIC50. Scope: all listed entries.
Molecular target: human HPK1 protein (Homo sapiens)
Construct: recombinant human HPK1 protein (a.a. 1-346) was expressed in Sf9 insect cells; GST (N); purchased Signalchem M23-11G; host or cells: Sf9 insect cells (baculovirus)
Sequence (Q92918 1-346): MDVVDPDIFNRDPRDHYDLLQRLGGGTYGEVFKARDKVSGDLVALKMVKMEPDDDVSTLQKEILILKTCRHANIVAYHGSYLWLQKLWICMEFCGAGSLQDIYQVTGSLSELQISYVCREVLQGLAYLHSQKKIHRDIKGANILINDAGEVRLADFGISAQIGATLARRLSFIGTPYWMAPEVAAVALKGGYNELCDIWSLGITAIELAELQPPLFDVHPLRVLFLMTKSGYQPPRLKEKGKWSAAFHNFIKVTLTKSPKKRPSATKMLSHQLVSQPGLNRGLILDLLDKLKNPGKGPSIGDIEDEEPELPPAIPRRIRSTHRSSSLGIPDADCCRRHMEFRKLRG
Experiment: Human HPK1 protein TR-FRET assay
Type: biochemical
Conditions: 1 mM ATP, Table 20
pIC50: −log10 of the molar value.

1) C[C@@H]1Cc2ccc(Oc3ccnc4[nH]c(C(=O)N(C)C)cc34)cc2CN1C(=O)Nc1cnc(O[C@@H]2CCN(C)C[C@@H]2O)c(C(F)(F)F)c1 [XVI-6] = > 6.30

Identify measured pIC50 corresponding to CC[C@@H]1CN(C(=O)Nc2ccc(CN3CCN(C)CC3)c(C(F)F)c2)Cc2cc(Oc3ccnc4[nH]c(C5(O)COC5)cc34)ccc21 [XV-14]
> 6.30

Using known records, supply pIC50 for CC[C@H]1CN(C(=O)Nc2ccc(CN3CCN(C)CC3)c(C(F)(F)F)c2)Cc2cc(Oc3ccnc4[nH]c(C(=O)N(C)CCCO)cc34)cnc21 [XIV-111]
> 6.30

* * *

Biological target: human HPK1 protein (Homo sapiens, UniProt Q92918)
Construct: recombinant human HPK1 protein (a.a. 1-346) was expressed in Sf9 insect cells; GST (N); purchased Signalchem M23-11G; host or cells: Sf9 insect cells (baculovirus)
Assay: Human HPK1 protein TR-FRET assay
Assay type: biochemical
Details: 1 mM ATP, Table 20
Procedure: Exemplary compounds from the above Examples were tested for ability to inhibit HPK1 using a human HPK1 protein TR-FRET Assay. Assay procedures and results are described below. […] The fluorescence resonance energy transfer (FRET) signal was measured on an Envision plate reader: Excitation filter=340 nm, APC emission=665 nm, Europium emission=615 nm, dichroic mirror=D400/D630, delay time=100 μs, and integration time=200 μs. […]
pIC50: −log10 of the molar value.
MEASUREMENT TYPE: pIC50

Example entries and their recorded answers appear below.
1) C[C@@H]1Cc2ccc(Oc3c(F)cnc4[nH]c(-c5cnn(C)c5)cc34)cc2CN1C(=O)Nc1ccc(CN2CCN(C)CC2)c(C(F)(F)F)c1 [XVI-4] = > 6.30
2) CC[C@@H]1CN(C(=O)Nc2ccc(CN3CCN(C)CC3)c(C(F)(F)F)c2)Cc2cc(Oc3ccnc4[nH]c(C5CC5)cc34)cnc21 [XIV-73] = > 6.30
3) CN1CCN(Cc2ccc(NC(=O)N3CCc4cc(F)c(Nc5c(F)cnc6[nH]c(-c7cnn(C)c7)cc56)cc4C3)cc2C(F)(F)F)CC1 [XVII-3] = > 6.30
4) CCC1CN(C(=O)Nc2ccc(CN3CCN(CC)CC3)c(C(F)(F)F)c2)Cc2cc(Oc3ccnc4[nH]c(C(C)OC)cc34)cnc21 (stereo not shown) [XIV-41] = 5.00 to 5.30
5) C[C@H]1CN(C(=O)Nc2ccc(CN3CCN(C)CC3)c(C(F)(F)F)c2)Cc2cc(Oc3c(F)cnc4[nH]c(C5(O)COC5)cc34)cnc21 [XIV-88] = > 6.30

Answer with the recorded pIC50 of CN1CCN(Cc2ccc(NC(=O)N3CCc4ccc(Oc5c(F)cnc6[nH]c(-c7ccncc7)cc56)cc4C3)cc2C(F)(F)F)CC1 [XII-5] only.
> 6.30

Note pIC50 for the molecule shown: CC[C@H]1CN(C(=O)Nc2ccc(CN3CCN(C)CC3)c(C(F)(F)F)c2)Cc2cc(Oc3ccnc4[nH]c(C(=O)N(C)CCO)cc34)cnc21 [XIV-105]
> 6.30

Provide one value: measured pIC50 of CC[C@H]1CN(C(=O)Nc2ccc(CN3CCN(CC(F)F)CC3)c(C(F)(F)F)c2)Cc2cc(Oc3ccnc4[nH]c(C(=O)N(C)C)cc34)cnc21 [XIV-139]
5.30 to 6.30

Check the records and state pIC50 for CC[C@H]1CN(C(=O)Nc2ccc(CN3CCNCC3)c(C(F)(F)F)c2)Cc2cc(Oc3ccnc4[nH]c(CO)cc34)cnc21 [XIV-55]
> 6.30

Name the recorded pIC50 of the molecule listed here: CCN1CCN(Cc2ccc(NC(=O)N3Cc4cc(Oc5cc(N)ncc5F)cnc4C(C)C3)cc2C(F)(F)F)CC1 (single isomer, unassigned) [XIV-18]
5.00 to 5.30

Kindly indicate its recorded pIC50. Item: CC[C@H]1CN(C(=O)Nc2ccc(CN3CCN(C)CC3)c(C(F)(F)F)c2)Cc2cc(Oc3ncnn4cc(C(=O)N(C)C)cc34)cnc21 [XIV-144]
> 6.30

Give recorded pIC50. C[C@H]1CN(C(=O)Nc2ccc(CN3CCN(C)CC3)c(C(F)F)c2)Cc2cc(Oc3ccnc4[nH]c(C5(O)COC5)cc34)ccc21 [XV-33]
> 6.30

Identify the reported pIC50 for the following entry. CN1CCN(Cc2ccc(NC(=O)N3CCc4ccc(Oc5c(F)cnc6[nH]c(C(=O)N(C)C)cc56)cc4C3)cc2C(F)(F)F)CC1 [XVIII-4]
> 6.30

* * *

target: human HPK1 protein (Homo sapiens, UniProt Q92918); construct: recombinant human HPK1 protein (a.a. 1-346) was expressed in Sf9 insect cells; GST (N); purchased Signalchem M23-11G; host or cells: Sf9 insect cells (baculovirus); experiment: Human HPK1 protein TR-FRET assay; assay type: biochemical; conditions: 1 mM ATP, Table 20
pIC50: −log10 of the molar value.
MEASUREMENT TYPE: pIC50

Record excerpt, results attached:
1) CCN1CCN(Cc2ccc(NC(=O)N3CCc4ccc(Oc5c(F)cnc6[nH]c(C7(O)COC7)cc56)cc4[C@@H]3C)cc2C(F)(F)F)CC1 [XIII-16] = > 6.30
2) CCC1CN(C(=O)Nc2ccc(CN3CCN(CC)CC3)c(C(F)(F)F)c2)Cc2cc(Oc3ccnc4[nH]c(C5CCOC5)cc34)cnc21 (stereo not drawn) [XIV-63] = > 6.30

We next turn to a different compound, shown below.
Give me measured pIC50, please, for this compound: CC[C@@H]1CN(C(=O)Nc2ccc(CN3CCNCC3)c(C(F)(F)F)c2)Cc2cc(Oc3ccnc4[nH]c(C5(O)COC5)cc34)ccc21 [XV-10]
> 6.30

* * *

Biological target: human HPK1 protein (Homo sapiens)
Construct: recombinant human HPK1 protein (a.a. 1-346) was expressed in Sf9 insect cells; GST (N); purchased Signalchem M23-11G; host or cells: Sf9 insect cells (baculovirus)
Sequence (Q92918 1-346): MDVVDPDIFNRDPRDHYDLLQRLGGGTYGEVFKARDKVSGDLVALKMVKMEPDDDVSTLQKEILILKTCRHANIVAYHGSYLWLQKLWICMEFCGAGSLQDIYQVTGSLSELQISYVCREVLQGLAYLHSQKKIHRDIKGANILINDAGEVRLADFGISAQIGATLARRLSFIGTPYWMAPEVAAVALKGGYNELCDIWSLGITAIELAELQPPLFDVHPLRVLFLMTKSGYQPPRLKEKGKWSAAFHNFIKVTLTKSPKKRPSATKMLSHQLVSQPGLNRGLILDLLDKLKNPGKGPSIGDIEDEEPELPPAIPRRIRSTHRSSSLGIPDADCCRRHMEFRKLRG
Assay: Human HPK1 protein TR-FRET assay
Type: biochemical
Conditions: 1 mM ATP, Table 20
MEASUREMENT TYPE: IC50

Name the recorded IC50 of the molecule listed here: CC[C@H]1CN(C(=O)Nc2cc(C(F)(F)F)c(CN3CCN(C)CC3)cc2F)Cc2cc(Oc3ccnc4[nH]c(C(=O)N(C)C)cc34)cnc21
< 500 nM

Output measured IC50 for this item: CC[C@@H]1CN(C(=O)Nc2cnc(O[C@H]3CCN(C)C3)c(C(F)(F)F)c2)Cc2cc(Oc3ccnc4[nH]c(C)cc34)cnc21
> 10000 nM

Tell me its IC50 given C[C@H]1c2cc(Oc3ccnc4[nH]c(C5(O)COC5)cc34)ccc2CCN1C(=O)Nc1ccc(CN2CCN(C)CC2)c(C(F)F)c1 as the entry.
< 500 nM

* * *

Target: human HPK1 protein (Homo sapiens)
Construct: recombinant human HPK1 protein (a.a. 1-346) was expressed in Sf9 insect cells; GST (N); purchased Signalchem M23-11G; host or cells: Sf9 insect cells (baculovirus)
Sequence (Q92918 1-346): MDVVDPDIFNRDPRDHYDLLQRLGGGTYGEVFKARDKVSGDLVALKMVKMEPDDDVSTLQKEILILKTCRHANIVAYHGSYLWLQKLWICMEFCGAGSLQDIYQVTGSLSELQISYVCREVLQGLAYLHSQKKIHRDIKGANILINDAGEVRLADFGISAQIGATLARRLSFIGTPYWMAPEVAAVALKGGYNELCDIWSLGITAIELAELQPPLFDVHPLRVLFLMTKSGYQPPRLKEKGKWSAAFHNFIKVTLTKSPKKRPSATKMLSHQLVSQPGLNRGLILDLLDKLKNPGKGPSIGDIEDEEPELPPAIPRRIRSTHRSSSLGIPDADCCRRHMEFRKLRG
Experiment: Human HPK1 protein TR-FRET assay
Format: biochemical
Conditions: 1 mM ATP, Table 20
MEASUREMENT TYPE: IC50

1) CC[C@@H]1CN(C(=O)Nc2ccc(CN3CCN(C)CC3)c(C(F)(F)F)c2)Cc2cc(Oc3ccnc4[nH]c(C5(O)COC5)cc34)ccc21 = < 500 nM
2) CC[C@H]1CN(C(=O)Nc2ccc(CN3CCN(CC(F)(F)F)CC3)c(C(F)(F)F)c2)Cc2cc(Oc3ccnc4[nH]c(C(=O)N(C)C)cc34)cnc21 = > 10000 nM

Now for the molecule whose IC50 we want.
Return the recorded IC50 value; entry: CN(C)C(=O)c1cc2c(Oc3ccc4c(c3)CN(C(=O)Nc3ccc(CN5CCNCC5)c(C(F)(F)F)c3)CC4)c(F)cnc2[nH]1
< 500 nM
